Target: Human BCL-XL protein (N-terminal HiBiT tagged BCL-XL expressed in HT1080 cells) (Homo sapiens)
Construct: expressed in transfected cells; host or cells: HT-1080 (ATCC CCL-121), stably transduced with lentivirus pLV-UBC-N-HiBiT-BCL-XL-PGK-puro and selected with puromycin
Assay: HiBiT Based Degradation Assay
Format: cell-based
Settings: BCL-XL degradation, HT1080 cells expressing N-HiBiT-BCL-XL, 24 hours incubation, normalized with DMSO control; geometric mean for multiple data points; read-out: EC50 (24 h)
Task for the reader: assign each of the following compounds its reported DC50.

Reference set (3 entries):
- COc1c(NC(=O)CN2CCC(CCCOc3cccc(-c4ccc(N5CCc6cccc(C(=O)Nc7nc8ccccc8s7)c6C5)nc4C(=O)O)c3C)CC2)ccc2c(C3CCC(=O)NC3=O)nn(C)c12 (stereo not drawn): 10 to 100 nM
- Cn1nc(C2CCC(=O)NC2=O)c2ccc(NC(=O)CN3CCC(CCCOc4ccc(-c5ccc(N6CCc7cccc(C(=O)Nc8nc9ccccc9s8)c7C6)nc5C(=O)O)c(C(F)(F)F)c4)CC3)c(F)c21 (stereo not drawn): 10 to 100 nM
- Cc1c(OCC2CC3(CCN(CC(=O)Nc4cc5c(cc4C(F)(F)F)c(C4CCC(=O)NC4=O)nn5C)CC3)C2)cccc1-c1ccc(N2CCc3cccc(C(=O)Nc4nc5ccccc5s4)c3C2)nc1C(=O)O (stereo not drawn): 1000 to 10000 nM

Hi team, please reply with DC50 for each item in this list.
1. Cc1c(OC[C@@H]2C[C@H]2CC2CCN(CC(=O)Nc3ccc4c(C5CCC(=O)NC5=O)nn(C)c4c3)CC2)cccc1-c1ccc(N2CCc3cccc(C(=O)Nc4nc5ccccc5s4)c3C2)nc1C(=O)O (single isomer, unassigned) [Compound 1004b]
2. Cc1cc(OCC2CC3(CCN(CC(=O)Nc4ccc5c(C6CCC(=O)NC6=O)nn(C)c5c4F)CC3)C2)ccc1-c1ccc(N2CCc3cccc(C(=O)Nc4nc5ccccc5s4)c3C2)nc1C(=O)O (stereo not drawn)
3. Cn1nc(C2CCC(=O)NC2=O)c2ccc(NC(=O)CN3CCC4(CC3)CC(Oc3cccc(-c5ccc(N6CCc7cccc(C(=O)Nc8nc9ccccc9s8)c7C6)nc5C(=O)O)c3C(F)(F)F)C4)c(F)c21 (stereo not drawn)

## Result
1. 10 to 100 nM
2. 10 to 100 nM
3. < 10 nM

###

Target: Human BCL-XL protein (N-terminal HiBiT tagged BCL-XL expressed in HT1080 cells) (Homo sapiens, UniProt Q07817)
Construct: expressed in transfected cells; host or cells: HT-1080 (ATCC CCL-121), stably transduced with lentivirus pLV-UBC-N-HiBiT-BCL-XL-PGK-puro and selected with puromycin
Sequence (Q07817 whole entry): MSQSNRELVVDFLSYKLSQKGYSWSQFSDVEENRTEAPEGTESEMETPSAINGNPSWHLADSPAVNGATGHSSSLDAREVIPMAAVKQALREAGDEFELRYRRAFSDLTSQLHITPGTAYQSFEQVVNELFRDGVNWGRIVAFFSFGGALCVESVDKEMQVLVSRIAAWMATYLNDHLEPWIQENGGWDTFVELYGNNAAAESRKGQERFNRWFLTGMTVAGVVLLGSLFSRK
Experiment: HiBiT Based Degradation Assay
Format: cell-based
Conditions: BCL-XL degradation, HT1080 cells expressing N-HiBiT-BCL-XL, 24 hours incubation, normalized with DMSO control; geometric mean for multiple data points; read-out: EC50 (24 h)
Task for the reader: assign each of the following molecules its reported DC50.

Reference set (3 entries):
* COc1c(NC(=O)CN2CCC3(CC2)CC(COc2cccc(-c4ccc(N5CCc6cccc(C(=O)Nc7nc8ccccc8s7)c6C5)nc4C(=O)O)c2C)C3)ccc2c(C3CCC(=O)NC3=O)nn(C)c12 (stereo not shown) [Compound 127] | 10 to 100 nM
* Cc1cc(OCCC[C@H]2CCN(CC(=O)Nc3ccc4c(C5CCC(=O)NC5=O)nn(C)c4c3)[C@H](C)C2)ccc1-c1ccc(N2CCc3ccnc(C(=O)Nc4nc5ccccc5s4)c3C2)nc1C(=O)O (stereo partly shown) [Compound 219c] | < 10 nM
* C[C@H](CCC1CCN(CC(=O)Nc2ccc3c(C4CCC(=O)NC4=O)nn(C)c3c2)CC1)Oc1ccc(-c2ccc(N3CCc4cccc(C(=O)Nc5nc6ccccc6s5)c4C3)nc2C(=O)O)c(C(F)(F)F)c1 (single isomer, unassigned) [Compound 138b] | 10 to 100 nM

Now take the following molecule into account.
## Task Reported DC50 for COc1c(NC(=O)CN2CC[C@@H](CCCOc3cccc(-c4ccc(N5CCc6cccc(C(=O)Nc7nc8ccccc8s7)c6C5)nc4C(=O)O)c3C)C[C@H]2C)ccc2c(C3CCC(=O)NC3=O)nn(C)c12 (stereo partly shown) [Compound 208d] : what is it?
## Result 10 to 100 nM

###

Task for the reader: assign each of the following compounds its reported DC50.
Biological target: Human BCL-XL protein (N-terminal HiBiT tagged BCL-XL expressed in HT1080 cells) (Homo sapiens)
Construct: expressed in transfected cells; host or cells: HT-1080 (ATCC CCL-121), stably transduced with lentivirus pLV-UBC-N-HiBiT-BCL-XL-PGK-puro and selected with puromycin
Test: HiBiT Based Degradation Assay
Type: cell-based
Settings: BCL-XL degradation, HT1080 cells expressing N-HiBiT-BCL-XL, 24 hours incubation, normalized with DMSO control; geometric mean for multiple data points; read-out: EC50 (24 h)

* Cn1nc(C2CCC(=O)NC2=O)c2ccc(NC(=O)CN3CCC4(CC3)CC(Oc3ccc(-c5ccc(N6CCc7cccc(C(=O)Nc8nc9ccccc9s8)c7C6)nc5C(=O)O)c(C(F)(F)F)c3)C4)cc21 (stereo not drawn) | < 10 nM
* Cc1cc(NCCCC2CCN(CC(=O)Nc3ccc4c(C5CCC(=O)NC5=O)nn(C)c4c3)CC2)ccc1-c1ccc(N2CCc3cccc(C(=O)Nc4nc5ccccc5s4)c3C2)nc1C(=O)O (stereo not drawn) | < 10 nM

Now take the following compound into account.
## Task Reported DC50 for Cc1cc2c(C3CCC(=O)NC3=O)nn(C)c2cc1NC(=O)CN1CCC2(CC1)CC(COc1ccc(-c3ccc(N4CCc5cccc(C(=O)Nc6nc7ccccc7s6)c5C4)nc3C(=O)O)c(C)c1)C2 (stereo not drawn) : what is it?
## Result 10 to 100 nM

###

Molecular target: Human BCL-XL protein (N-terminal HiBiT tagged BCL-XL expressed in HT1080 cells) (Homo sapiens, UniProt Q07817)
Construct: expressed in transfected cells; host or cells: HT-1080 (ATCC CCL-121), stably transduced with lentivirus pLV-UBC-N-HiBiT-BCL-XL-PGK-puro and selected with puromycin
Experiment: HiBiT Based Degradation Assay
Assay type: cell-based
Conditions: BCL-XL degradation, HT1080 cells expressing N-HiBiT-BCL-XL, 24 hours incubation, normalized with DMSO control; geometric mean for multiple data points; read-out: EC50 (24 h)
Value type: DC50

Hi team, please reply with DC50 for each item in this list.
1. Cc1cc(OC[C@@H]2C[C@@H]2C2CCN(CC(=O)Nc3ccc4c(C5CCC(=O)NC5=O)nn(C)c4c3)CC2)ccc1-c1ccc(N2CCc3cccc(C(=O)Nc4nc5ccccc5s4)c3C2)nc1C(=O)O (single isomer, unassigned) [Compound 1003d]
2. Cc1cc(OC2CC3(CCN(CC(=O)Nc4ccc5c(C6CCC(=O)NC6=O)nn(C)c5n4)CC3)C2)ccc1-c1ccc(N2CCc3ccnc(C(=O)Nc4nc5ccccc5s4)c3C2)nc1C(=O)O (centres unmarked) [Compound 213]

## Result
1. < 10 nM
2. < 10 nM

###

Target: Human BCL-XL protein (N-terminal HiBiT tagged BCL-XL expressed in HT1080 cells) (Homo sapiens, UniProt Q07817)
Construct: expressed in transfected cells; host or cells: HT-1080 (ATCC CCL-121), stably transduced with lentivirus pLV-UBC-N-HiBiT-BCL-XL-PGK-puro and selected with puromycin
Experiment: HiBiT Based Degradation Assay
Assay type: cell-based
Details: bottom of BCL-XL degradation curve (remaining HiBiT-BCL-XL signal vs DMSO control), HT1080 cells, 24 hours incubation
Value type: Ymin (24 h)

Reference set (7 entries):
- Cc1cc(OC[C@H]2C[C@@H]2CC2CCN(CC(=O)Nc3ccc4c(C5CCC(=O)NC5=O)nn(C)c4c3)CC2)ccc1-c1ccc(N2CCc3cccc(C(=O)Nc4nc5ccccc5s4)c3C2)nc1C(=O)O (single isomer, unassigned) [Compound 1002a]: B (30% ≤ Ymin < 50%)
- Cc1c(OCCCC2CCN(CC(=O)Nc3ccc4c(C5CCC(=O)NC5=O)nn(C)c4c3)CC2)cccc1-c1ccc(N2CCc3ccnc(C(=O)Nc4nc5ccccc5s4)c3C2)nc1C(=O)O (stereo not drawn): B (30% ≤ Ymin < 50%)
- Cn1nc(C2CCC(=O)NC2=O)c2ccc(NC(=O)CN3CCC4(CC3)CC(Oc3cccc(-c5ccc(N6CCc7cccc(C(=O)Nc8nc9ccccc9s8)c7C6)nc5C(=O)O)c3C(F)(F)F)C4)cc21 (stereo not drawn): B (30% ≤ Ymin < 50%)
- Cc1cc(OCCC[C@@H]2CCN(CC(=O)Nc3ccc4c(C5CCC(=O)NC5=O)nn(C)c4c3)[C@H](C)C2)ccc1-c1ccc(N2CCc3ccnc(C(=O)Nc4nc5ccccc5s4)c3C2)nc1C(=O)O (stereo partly drawn) [Compound 219d]: A (Ymin < 30%)
- Cc1cc(OCCCCC2CCN(CC(=O)Nc3ccc4c(C5CCC(=O)NC5=O)nn(C)c4c3)CC2)ccc1-c1ccc(N2CCc3cccc(C(=O)Nc4nc5ccccc5s4)c3C2)nc1C(=O)O (stereo not drawn): B (30% ≤ Ymin < 50%)
- Cc1c(OC[C@@H]2C[C@H]2C2CCN(CC(=O)Nc3ccc4c(C5CCC(=O)NC5=O)nn(C)c4c3)CC2)cccc1-c1ccc(N2CCc3cccc(C(=O)Nc4nc5ccccc5s4)c3C2)nc1C(=O)O (single isomer, unassigned) [Compound 1001a]: B (30% ≤ Ymin < 50%)
- Cc1c(OCCC[C@@H]2C[C@H]3CC[C@@H](C2)N3CC(=O)Nc2ccc3c(C4CCC(=O)NC4=O)nn(C)c3c2)cccc1-c1ccc(N2CCc3cccc(C(=O)Nc4nc5ccccc5s4)c3C2)nc1C(=O)O (stereo partly drawn) [Compound 175a]: B (30% ≤ Ymin < 50%)

Now take the following compound into account.
## Task Reported Ymin (24 h) for Cc1cc(OC[C@H]2C[C@H]2C2CCN(CC(=O)Nc3ccc4c(C5CCC(=O)NC5=O)nn(C)c4c3)CC2)ccc1-c1ccc(N2CCc3cccc(C(=O)Nc4nc5ccccc5s4)c3C2)nc1C(=O)O (single isomer, unassigned) [Compound 1003c] : what is it?
## Result A (Ymin < 30%)
